Target: acetylcholine receptor
Assay: SPR, AchR immobilized on chip
property: Binding affinity (relative to RRGVRR) (value relative to the RRGVRR sequence)

>>> df
    binder  measured
0  RRGVRRN       105
1  GRRGVRR       137
2  FRRGVRR       139
3  IRRGVRR       126
4  SRRGVRR       117
5  KRRGVRR       169
6  RRGVRRS       118
7  RRGVRRG       105
8  RRGVRRI       138
9  RRGVRRT       113

A = QRRGVRR
B = YRRGVRR
Ask | Return label of the item with the larger Binding affinity (relative to RRGVRR) (value relative to the RRGVRR sequence). Candidates: A , B . Returns: label corresponding to the selected item.
Reply | B
